Attribution: patent US11053219B2

- Method: Pharmacokinetic study in Beagle dogs
- Assay type: in vivo
- Test settings: dog, plasma, Oral (2 mg/kg)
Quantity: log10(AUC) (log10 of the value in ng·h/mL)
For clarity, the numbers are log10 values of AUC expressed in ng·h/mL.

The examples below pair each entry with its known result.
[2H]C([2H])([2H])CC(=O)c1cnc(NC(=O)C2CC2)cc1Nc1cccc(-c2ncn(C([2H])([2H])[2H])n2)c1OC: 3.18
[2H]C([2H])([2H])CC(=O)c1cnc(NC(=O)C2CC2)cc1Nc1nccc(-c2ncn(C([2H])([2H])[2H])n2)c1OC: 3.42
[2H]C([2H])([2H])CC(=O)c1cnc(Nc2ccc(C(C)(C)O)c(F)n2)cc1Nc1nccc(-c2ncn(C([2H])([2H])[2H])n2)c1OC: 2.65
[2H]C([2H])([2H])CC(=O)c1cnc(Nc2cccc(C#N)n2)cc1Nc1nccc(-c2ncn(C([2H])([2H])[2H])n2)c1OC: 1.83
[2H]C([2H])([2H])CC(=O)c1cnc(Nc2ccc(C(C)(C)O)c(F)n2)cc1Nc1cccc(-c2ncn(C([2H])([2H])[2H])n2)c1OC: 2.74

Let's switch to this compound now.
[Q] Please give the measured log10(AUC) for this compound: `[2H]C([2H])([2H])CC(=O)c1cnc(Nc2cccc(C#N)n2)cc1Nc1cccc(-c2ncn(C([2H])([2H])[2H])n2)c1OC`
[A] 2.40
